Every entry's value here was drawn from patent US6905854B2.

- experimentalDetails: Kinetic assay of purified DAOCS with penicillin N as main substrate
- Format: biochemical
- testContext: for penicillin N; 0.5 μg purified DAOCS, 30° C., 10 minutes; triplicate, Hanes-Woolf Plot
- Procedure: The cell extract (2 ml) of a candidate mutant was applied onto a HiTrap Q column (5 ml) pre-equilibrated with buffer B (50 mM Mops/pH 7.5, 1 mM DTT, 0.4 mM pefabloc SC, and 0.5 μg/ml leupeptin). […] The standard penicillin G assay was followed for kinetic assay, but 20 μg of purified DAOCS was used and the concentration of α-ketoglutarate was reduced to 1 mM. […] The filtrate was analyzed by HPLC using 25 mM potassium phosphate/pH 6.5 as a mobile phase. […]
property: Km

[[record]]
molecule = "YS67: mutated penicillin expandase (DAOCS) with substitutions V275I and I305M (protein, UniProt P18548 1-311, looked up, variant V275I I305M) Deacetoxycephalosporin C …: MDTTVPTFSLAELQQGLHQDEFRRCLRDKGLFYLTDCGLTDTELKSAKDLVIDFFEHGSEAEKRAVTSPVPTMRRGFTGLESESTAQITNTGSYSDYSMCYSMGTADNLFPSGDFERIWTQYFDRQYTASRAVAREVLRATGTEPDGGVEAFLDCEPLLRFRYFPQVPEHRSAEEQPLRMAPHYDLSMVTLIQQTPCANGFVSLQAEVGGAFTDLPYRPDAVLVFCGAIATLVTGGQVKAPRHHVAAPRRDQIAGSSRTSSVFFLRPNADFTFSIPLARECGFDVSLDGETATFQDWIGGNYVNMRRTSKA"
property = "Km"
testvalue = "13 µM"

[[record]]
molecule = "YS87: mutated penicillin expandase (DAOCS) with substitution T91A (protein, UniProt P18548 1-311, looked up, variant T91A) Deacetoxycephalosporin C …: MDTTVPTFSLAELQQGLHQDEFRRCLRDKGLFYLTDCGLTDTELKSAKDLVIDFFEHGSEAEKRAVTSPVPTMRRGFTGLESESTAQITNAGSYSDYSMCYSMGTADNLFPSGDFERIWTQYFDRQYTASRAVAREVLRATGTEPDGGVEAFLDCEPLLRFRYFPQVPEHRSAEEQPLRMAPHYDLSMVTLIQQTPCANGFVSLQAEVGGAFTDLPYRPDAVLVFCGAIATLVTGGQVKAPRHHVAAPRRDQIAGSSRTSSVFFLRPNADFTFSVPLARECGFDVSLDGETATFQDWIGGNYVNIRRTSKA"
property = "Km"
testvalue = "9 µM"

[[record]]
molecule = "SC59: DNA-shuffled combined DAOCS mutant with C155Y, Y184H, V275I and C281Y (protein, UniProt P18548 1-311, looked up, variant C155Y Y184H V275I C281Y) Deacetoxycephalosporin C …: MDTTVPTFSLAELQQGLHQDEFRRCLRDKGLFYLTDCGLTDTELKSAKDLVIDFFEHGSEAEKRAVTSPVPTMRRGFTGLESESTAQITNTGSYSDYSMCYSMGTADNLFPSGDFERIWTQYFDRQYTASRAVAREVLRATGTEPDGGVEAFLDYEPLLRFRYFPQVPEHRSAEEQPLRMAPHHDLSMVTLIQQTPCANGFVSLQAEVGGAFTDLPYRPDAVLVFCGAIATLVTGGQVKAPRHHVAAPRRDQIAGSSRTSSVFFLRPNADFTFSIPLAREYGFDVSLDGETATFQDWIGGNYVNIRRTSKA"
property = "Km"
testvalue = "92 µM"

[[record]]
molecule = "YS5: mutated penicillin expandase (DAOCS) with substitution V275I (protein, UniProt P18548 1-311, looked up, variant V275I) Deacetoxycephalosporin C …: MDTTVPTFSLAELQQGLHQDEFRRCLRDKGLFYLTDCGLTDTELKSAKDLVIDFFEHGSEAEKRAVTSPVPTMRRGFTGLESESTAQITNTGSYSDYSMCYSMGTADNLFPSGDFERIWTQYFDRQYTASRAVAREVLRATGTEPDGGVEAFLDCEPLLRFRYFPQVPEHRSAEEQPLRMAPHYDLSMVTLIQQTPCANGFVSLQAEVGGAFTDLPYRPDAVLVFCGAIATLVTGGQVKAPRHHVAAPRRDQIAGSSRTSSVFFLRPNADFTFSIPLARECGFDVSLDGETATFQDWIGGNYVNIRRTSKA"
property = "Km"
testvalue = "12 µM"

